Please provide measured IC50 for the entries that follow.
Molecular target: human PDE5 (Homo sapiens, UniProt O76074)
Construct: from tissue; host or cells: human platelets from fresh donor blood (platelet lysate)
Experiment: Inhibition of PDE5 activity (platelet lysate, SPA assay)
Format: biochemical
Conditions: 0.5 μM cGMP, read-out: PDE5 Inhibitory values measured as -logIC50 (converted)

Problem: Look up IC50: COc1ccc(C2=NN(C3CCN(C(=O)[C@@H](Cc4ccccc4Cl)NC(=O)c4c(C)[nH]c5c(-c6c(OCC7CC7)ccc7c6OCO7)ncnc45)CC3)C(=O)[C@@H]3CCCC[C@H]23)cc1OC
Solution: < 1 nM

Problem: Look up IC50: COc1ccc(C2=NN(C3CCN(C(=O)[C@H](Cc4ccccn4)NC(=O)c4c[nH]c5c(-c6c(OCC7CC7)ccc7c6OCO7)ncnc45)CC3)C(=O)[C@@H]3CCCC[C@H]23)cc1OC
Solution: < 1 nM

Problem: Look up IC50: COc1ccc(C2=NN(C3CCN(C(=O)[C@H](Cc4ccc(O)cc4)NC(=O)c4c[nH]c5c(-c6c(OCC7CC7)ccc7c6OCO7)ncnc45)CC3)C(=O)[C@@H]3CCCC[C@H]23)cc1OC
Solution: 1 to 10 nM

Problem: Look up IC50: COc1ccc(C2=NN(C3CCN(C(=O)[C@@H](Cc4cscn4)NC(=O)c4c[nH]c5c(-c6c(OCC7CC7)ccc7c6OCO7)ncnc45)CC3)C(=O)[C@@H]3CCCC[C@H]23)cc1OC
Solution: < 1 nM

Problem: Look up IC50: COc1ccc(C2=NN(C3CCN(C(=O)[C@@H](CC(C)C)NC(=O)c4c[nH]c5c(-c6c(OCC7CC7)ccc7c6OCO7)ncnc45)CC3)C(=O)[C@@H]3CCCC[C@H]23)cc1OC
Solution: < 1 nM
